Measured Target: HER2 YVMA (Homo sapiens, UniProt P04626, INS775YVMA)
Construct: expressed in transfected cells; host or cells: BaF3 (murine pro-B)
Sequence (P04626 with tags, fused parts or gaps INS775YVMA): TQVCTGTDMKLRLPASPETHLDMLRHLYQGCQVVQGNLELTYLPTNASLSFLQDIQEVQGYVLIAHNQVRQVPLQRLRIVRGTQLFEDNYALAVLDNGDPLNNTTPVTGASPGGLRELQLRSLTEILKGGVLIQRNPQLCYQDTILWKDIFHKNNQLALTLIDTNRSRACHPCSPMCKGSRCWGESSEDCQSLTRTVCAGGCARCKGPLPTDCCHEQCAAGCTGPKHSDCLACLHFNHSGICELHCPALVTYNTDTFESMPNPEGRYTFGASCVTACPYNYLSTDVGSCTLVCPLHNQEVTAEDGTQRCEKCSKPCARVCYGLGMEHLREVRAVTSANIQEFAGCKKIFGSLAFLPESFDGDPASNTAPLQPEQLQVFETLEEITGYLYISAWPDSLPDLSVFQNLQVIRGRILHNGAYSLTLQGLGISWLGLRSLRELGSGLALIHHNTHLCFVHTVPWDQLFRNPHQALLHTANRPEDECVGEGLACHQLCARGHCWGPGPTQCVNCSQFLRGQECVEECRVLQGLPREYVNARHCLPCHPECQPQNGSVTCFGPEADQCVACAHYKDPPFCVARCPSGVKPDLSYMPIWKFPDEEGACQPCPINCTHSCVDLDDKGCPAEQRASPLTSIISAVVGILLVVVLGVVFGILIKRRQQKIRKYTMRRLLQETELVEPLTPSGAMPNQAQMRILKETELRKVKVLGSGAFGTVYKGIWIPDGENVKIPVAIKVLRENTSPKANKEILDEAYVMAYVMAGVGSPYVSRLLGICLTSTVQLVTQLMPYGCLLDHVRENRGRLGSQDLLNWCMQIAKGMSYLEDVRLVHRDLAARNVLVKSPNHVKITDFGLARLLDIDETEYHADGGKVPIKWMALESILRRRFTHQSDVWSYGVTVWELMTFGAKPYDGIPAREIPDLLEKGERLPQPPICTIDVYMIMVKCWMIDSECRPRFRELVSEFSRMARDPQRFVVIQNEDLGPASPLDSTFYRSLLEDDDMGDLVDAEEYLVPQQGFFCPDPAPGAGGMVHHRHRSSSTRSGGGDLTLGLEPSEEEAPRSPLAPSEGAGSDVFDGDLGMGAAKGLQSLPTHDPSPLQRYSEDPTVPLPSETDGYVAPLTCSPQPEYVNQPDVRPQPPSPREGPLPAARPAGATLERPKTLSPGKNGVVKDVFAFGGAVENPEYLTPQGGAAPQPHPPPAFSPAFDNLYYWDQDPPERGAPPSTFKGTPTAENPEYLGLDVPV
Method Summary: BaF3 cell proliferation assay, HER2 YVMA (Table B)
Format: cell-based
Condition Context: potency code, 3 days, CellTiterGlo, read-out: HER2 YVMA (Activity for Inhibiting HER2)
In this section we review reported IC50 values for a set of compounds.

1. C=CC(=O)Nc1cc2c(Nc3ccc(OCc4cccc(F)c4)c(Cl)c3)ncnc2cc1OCCCN1CC(OC)C1 : 100 to 200 nM

Quick check: IC50 of "C=CC(=O)Nc1cc2c(Nc3ccc(OCc4ccccn4)nc3)ncnc2cc1O[C@@H]1CCN(C)C1" ?
> 1000 nM

Same thing, different compound: "C=CC(=O)Nc1cc2c(Nc3cc(Cl)c(OCc4cccc(F)c4)cc3F)ncnc2cc1OCCN1CCOCC1"
50 to 100 nM

Next record, please: "C=CC(=O)Nc1cc2c(Nc3ccc(Oc4ccc(Cl)c(F)c4)cc3)ncnc2cc1OCCN1CCOCC1"
> 1000 nM

* * *

Measured Target: EGFR V3 (Homo sapiens, UniProt P00533, DELINS30-297G)
Construct: expressed in transfected cells; host or cells: BaF3 (murine pro-B), retroviral pMXs-IRES-Blasticidin
Method Summary: Activity for inhibiting EGFR (Table A), EGFR V3 (EGFR-Viii)
Type: cell-based
Condition Context: read-out: EGFR V3, potency code (IC50)
pIC50: −log10 of the molar value.
compounds and their reported pIC50

1) C=CC(=O)Nc1cc2c(Nc3ccc(Oc4ccc(Cl)c(F)c4)cc3)ncnc2cc1OCCN1CCOCC1 : 7.00 to 7.30

State the recorded pIC50 for this entry: "C=CC(=O)Nc1cc2c(Nc3ccc(OCc4cccc(F)n4)c(Cl)c3)ncnc2cc1OCCCN1CC(OC)C1"
7.30 to 7.52

# iterate: "C=CC(=O)Nc1cc2c(Nc3ccc(OCc4ccccn4)c(Cl)c3)ncnc2cc1N1CC(N(C)C)C1"
6.52 to 6.70

Now consider "CC#CC(=O)Nc1cc2c(Nc3ccc(OCc4ccccn4)c(Cl)c3)ncnc2cc1N(C)CCN1CCOCC1" and answer again.
7.00 to 7.30

* * *

Measured Target: EGFR V3 (Homo sapiens, UniProt P00533, DELINS30-297G)
Construct: expressed in transfected cells; host or cells: BaF3 (murine pro-B), retroviral pMXs-IRES-Blasticidin
Method Summary: BaF3 cell proliferation assay, EGFR V3 (Table A)
Format: cell-based
Condition Context: potency code, 3 days, CellTiterGlo, read-out: EGFR V3 (Activity for Inhibiting EGFR)
pIC50: −log10 of the molar value.
Reported pIC50 by item:

1. C=CC(=O)Nc1cc2c(Nc3ccc(OCc4ccccn4)c(Cl)c3)ncnc2cc1OC[C@H]1C[C@@H]2CN(C)C[C@@H]2C1 : 7.30 to 7.52
2. C=CC(=O)Nc1cc2c(Nc3ccc(OCc4ccccn4)c(Cl)c3)ncnc2cc1OCCN1CC2(CCO2)C1 : 7.52 to 7.70
3. C=CC(=O)Nc1cc2c(Nc3ccc(OCc4ccccn4)c(Cl)c3)ncnc2cc1OCCN1CCC(OC)C1 (stereo not shown) : 7.52 to 7.70

Request the reported pIC50 associated with C=CC(=O)Nc1cc2c(Nc3ccc(OCc4ccccn4)c(Cl)c3)ncnc2cc1OCCN1CC2CN(C)CC2C1 (stereo not shown)
7.00 to 7.30

* * *

Measured Target: HER2-ASV (Homo sapiens, UniProt P00533, INS769ASV, cells depend on it)
Sequence (P00533 25-1210, stated change not applied): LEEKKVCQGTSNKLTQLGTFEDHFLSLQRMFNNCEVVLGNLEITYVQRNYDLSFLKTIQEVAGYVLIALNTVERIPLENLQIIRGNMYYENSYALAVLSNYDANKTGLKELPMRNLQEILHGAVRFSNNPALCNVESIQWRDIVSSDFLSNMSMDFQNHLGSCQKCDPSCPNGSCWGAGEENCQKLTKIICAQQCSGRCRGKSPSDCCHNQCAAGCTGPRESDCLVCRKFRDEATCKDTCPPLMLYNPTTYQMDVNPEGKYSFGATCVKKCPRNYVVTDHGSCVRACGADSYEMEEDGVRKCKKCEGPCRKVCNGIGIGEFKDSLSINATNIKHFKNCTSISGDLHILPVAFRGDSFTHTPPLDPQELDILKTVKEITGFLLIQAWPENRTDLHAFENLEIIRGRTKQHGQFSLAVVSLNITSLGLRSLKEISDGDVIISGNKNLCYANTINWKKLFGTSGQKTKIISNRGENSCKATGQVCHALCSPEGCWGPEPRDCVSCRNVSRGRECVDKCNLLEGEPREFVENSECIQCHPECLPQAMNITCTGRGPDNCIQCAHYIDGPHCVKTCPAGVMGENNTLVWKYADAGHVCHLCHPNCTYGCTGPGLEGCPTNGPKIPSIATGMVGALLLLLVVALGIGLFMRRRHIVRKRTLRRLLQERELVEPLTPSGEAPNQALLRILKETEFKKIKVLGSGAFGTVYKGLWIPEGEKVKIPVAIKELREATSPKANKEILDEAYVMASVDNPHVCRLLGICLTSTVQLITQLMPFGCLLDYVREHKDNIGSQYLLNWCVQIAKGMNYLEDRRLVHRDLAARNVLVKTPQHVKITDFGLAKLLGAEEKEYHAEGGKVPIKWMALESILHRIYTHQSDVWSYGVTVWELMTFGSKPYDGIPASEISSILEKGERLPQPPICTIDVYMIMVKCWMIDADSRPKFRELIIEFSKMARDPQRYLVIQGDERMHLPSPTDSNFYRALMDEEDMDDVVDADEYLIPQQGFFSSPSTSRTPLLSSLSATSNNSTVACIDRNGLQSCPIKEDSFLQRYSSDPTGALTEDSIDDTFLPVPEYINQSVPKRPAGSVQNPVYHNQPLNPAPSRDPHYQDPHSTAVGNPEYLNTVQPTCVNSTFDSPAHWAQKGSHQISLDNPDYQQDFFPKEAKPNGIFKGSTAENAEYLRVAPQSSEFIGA
Method Summary: BaF3 panel Cell Titer Glo proliferation, Exon 20 insertion ASV (Example 3)
Condition Context: BaF3 transformant, 72 hours, FIG. 21
Experimental Endpoint: IC50

For the compound "C=CC(=O)Nc1cc2c(Nc3cc(Cl)c(OCc4cccc(F)c4)cc3F)ncnc2cc1OCCN1CCOCC1" , what IC50 is on record?
< 100 nM

* * *

Measured Target: HER2 WT (Homo sapiens)
Sequence (P04626 23-1255): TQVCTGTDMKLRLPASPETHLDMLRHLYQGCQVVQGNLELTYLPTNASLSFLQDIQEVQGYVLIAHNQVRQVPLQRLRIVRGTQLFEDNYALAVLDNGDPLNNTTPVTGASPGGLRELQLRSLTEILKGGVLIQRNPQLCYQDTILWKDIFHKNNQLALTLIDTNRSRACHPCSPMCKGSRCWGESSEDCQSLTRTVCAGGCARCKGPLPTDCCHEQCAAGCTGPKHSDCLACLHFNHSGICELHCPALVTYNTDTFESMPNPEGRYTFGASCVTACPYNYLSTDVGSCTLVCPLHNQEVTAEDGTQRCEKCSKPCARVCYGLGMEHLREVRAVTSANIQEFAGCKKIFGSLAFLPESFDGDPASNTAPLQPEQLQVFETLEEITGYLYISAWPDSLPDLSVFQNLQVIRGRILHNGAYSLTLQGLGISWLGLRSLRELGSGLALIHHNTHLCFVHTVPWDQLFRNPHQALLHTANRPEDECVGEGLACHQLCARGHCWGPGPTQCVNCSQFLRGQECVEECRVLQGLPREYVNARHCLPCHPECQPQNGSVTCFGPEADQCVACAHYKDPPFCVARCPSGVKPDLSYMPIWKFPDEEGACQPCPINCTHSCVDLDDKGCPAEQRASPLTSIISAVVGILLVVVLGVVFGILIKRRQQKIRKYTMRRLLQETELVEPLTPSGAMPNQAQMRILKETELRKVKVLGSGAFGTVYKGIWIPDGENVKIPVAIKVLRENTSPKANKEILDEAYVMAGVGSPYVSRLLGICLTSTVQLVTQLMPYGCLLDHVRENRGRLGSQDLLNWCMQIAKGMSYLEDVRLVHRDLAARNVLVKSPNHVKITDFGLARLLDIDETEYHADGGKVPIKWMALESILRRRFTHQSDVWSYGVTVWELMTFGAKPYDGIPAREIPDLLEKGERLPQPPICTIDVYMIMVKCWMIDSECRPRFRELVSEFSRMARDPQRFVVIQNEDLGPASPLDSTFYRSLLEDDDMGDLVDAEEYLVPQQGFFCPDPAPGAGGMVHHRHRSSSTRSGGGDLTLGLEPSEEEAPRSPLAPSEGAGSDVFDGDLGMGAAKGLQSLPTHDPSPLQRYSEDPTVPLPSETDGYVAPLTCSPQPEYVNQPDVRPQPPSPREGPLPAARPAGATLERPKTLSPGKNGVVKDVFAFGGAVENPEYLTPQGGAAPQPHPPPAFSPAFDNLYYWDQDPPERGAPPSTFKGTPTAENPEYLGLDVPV
Method Summary: BaF3 cell proliferation assay, HER2 WT (Table B)
Type: cell-based
Condition Context: potency code, 3 days, CellTiterGlo, read-out: HER2 WT (Activity for Inhibiting HER2)
Entries and their measured IC50 follow.

Here's what some known entries look like.
1. C=CC(=O)Nc1cc2c(Nc3ccc(OCc4ccccn4)c(Cl)c3)ncnc2cc1OCCN1CCCC1 : 5 to 10 nM
2. C=CC(=O)Nc1cc2c(Nc3ccc(OCc4ccccn4)c(Cl)c3)ncnc2cc1OCC1CCCN1 (stereo not drawn) : 5 to 10 nM
3. C=CC(=O)Nc1cc2c(Nc3ccc(OCc4cccc(C(F)(F)F)n4)c(Cl)c3)ncnc2cc1OCCN1CCOCC1 : 100 to 200 nM
4. C=CC(=O)Nc1cc2c(Nc3ccc(OCc4ccccn4)c(Cl)c3)ncnc2cc1OCCN1CC2CCC(C1)O2 : 10 to 20 nM

// IC50 lookup, key: C=CC(=O)Nc1cc2c(Nc3ccc(OCc4ccccn4)cc3F)ncnc2cc1OC1CCN(C)C1 (stereo not drawn)
30 to 50 nM

What do you have for C=CC(=O)Nc1cc2c(Nc3ccc(OCc4ccccn4)c(Cl)c3)ncnc2cc1OC1CCNC1 (stereo not drawn) ?
10 to 20 nM

Also, C=CC(=O)Nc1cc2c(Nc3ccc(OCc4ccccn4)c(Cl)c3)ncnc2cc1OCCN1CCC(OC)C1 (stereo not drawn) please.
< 5 nM

And for C=CC(=O)Nc1cc2c(Nc3ccc(OCc4ccccn4)c(Cl)c3)ncnc2cc1OCCN1CCC(O)C1 (stereo not drawn) ?
< 5 nM

Same lookup for "C=CC(=O)Nc1cc2c(Nc3ccc(OCc4ccccn4)cn3)ncnc2cc1OCCN1CCOCC1" , please.
100 to 200 nM

Moving on to the next compound: C=CC(=O)Nc1cc2c(Nc3ccc(OCc4ccccn4)c(Cl)c3)ncnc2cc1OCCN(C)C1CCOC1 (stereo not drawn)
5 to 10 nM

Cool, now "C=CC(=O)Nc1cc2c(Nc3ccc(OCc4ccccn4)c(Cl)c3)ncnc2cc1OCCN1CC(OC)C1"
< 5 nM

Can you handle "C=CC(=O)Nc1cc2c(Nc3ccc(OCc4ccccn4)c(Cl)c3)ncnc2cc1OCCN(C)CC" next?
< 5 nM

Likewise for C=CC(=O)Nc1cc2c(Nc3ccc(OCc4ccccn4)c(Cl)c3)ncnc2cc1N(C)C1CCN(C)C1 (stereo not drawn) ?
100 to 200 nM

Same question, "C=CC(=O)Nc1cc2c(Nc3ccc(OCc4ccccn4)c(Cl)c3)ncnc2cc1OC1CN(C)C1" this time
10 to 20 nM

What do we get for "C=CC(=O)Nc1cc2c(Nc3ccc(OCc4cccc(F)c4)c(Cl)c3)ncnc2cc1N(C)CCN1CCOCC1" ?
100 to 200 nM

* * *

Measured Target: EGFR WT (Homo sapiens)
Sequence (P00533 25-1210 N540K): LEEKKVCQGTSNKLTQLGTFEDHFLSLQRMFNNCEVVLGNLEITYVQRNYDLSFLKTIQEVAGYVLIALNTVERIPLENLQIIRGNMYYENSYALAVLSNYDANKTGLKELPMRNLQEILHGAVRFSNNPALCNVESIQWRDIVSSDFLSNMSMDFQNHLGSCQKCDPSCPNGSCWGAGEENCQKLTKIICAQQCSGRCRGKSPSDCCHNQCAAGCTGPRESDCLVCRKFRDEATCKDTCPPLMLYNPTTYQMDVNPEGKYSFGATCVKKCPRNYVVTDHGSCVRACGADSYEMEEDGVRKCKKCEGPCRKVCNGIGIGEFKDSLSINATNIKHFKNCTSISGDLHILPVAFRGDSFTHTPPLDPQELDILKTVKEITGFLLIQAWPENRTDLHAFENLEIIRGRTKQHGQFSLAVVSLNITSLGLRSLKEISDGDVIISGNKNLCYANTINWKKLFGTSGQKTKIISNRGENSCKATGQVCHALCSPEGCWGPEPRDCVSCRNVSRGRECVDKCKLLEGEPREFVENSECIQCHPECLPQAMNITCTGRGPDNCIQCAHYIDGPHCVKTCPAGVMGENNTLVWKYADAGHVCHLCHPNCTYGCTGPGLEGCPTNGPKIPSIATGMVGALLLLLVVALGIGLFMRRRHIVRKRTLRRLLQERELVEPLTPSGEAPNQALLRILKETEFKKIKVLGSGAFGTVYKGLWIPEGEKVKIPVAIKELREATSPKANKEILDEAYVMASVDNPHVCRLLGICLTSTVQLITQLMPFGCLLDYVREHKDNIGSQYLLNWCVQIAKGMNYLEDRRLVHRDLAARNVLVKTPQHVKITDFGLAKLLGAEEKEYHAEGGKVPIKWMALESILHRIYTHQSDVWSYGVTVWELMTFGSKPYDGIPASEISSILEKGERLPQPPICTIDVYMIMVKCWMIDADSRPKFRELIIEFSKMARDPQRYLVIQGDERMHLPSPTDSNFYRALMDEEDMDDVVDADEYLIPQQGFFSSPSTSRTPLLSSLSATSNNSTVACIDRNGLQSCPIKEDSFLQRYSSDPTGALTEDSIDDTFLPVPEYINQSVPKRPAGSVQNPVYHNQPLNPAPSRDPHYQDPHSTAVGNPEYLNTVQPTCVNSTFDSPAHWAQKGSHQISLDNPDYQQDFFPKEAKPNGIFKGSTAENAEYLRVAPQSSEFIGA
Method Summary: BaF3 cell proliferation assay, EGFR WT (Table A)
Type: cell-based
Condition Context: potency code, 3 days, CellTiterGlo, read-out: EGFR WT (Activity for Inhibiting EGFR)
Experimental Endpoint: IC50

# query: IC50 of entry C=CC(=O)Nc1cc2c(Nc3ccc(OCc4ccccn4)c(Cl)c3)ncnc2cc1C#CC(C)(C)N1CCN(C)CC1 [compound 65]
500 to 1000 nM

* * *

Measured Target: HER2 YVMA (Homo sapiens, UniProt P04626, INS775YVMA)
Construct: expressed in transfected cells; host or cells: BaF3 (murine pro-B)
Method Summary: BaF3 cell proliferation assay, HER2 YVMA (Table B)
Type: cell-based
Condition Context: potency code, 3 days, CellTiterGlo, read-out: HER2 YVMA (Activity for Inhibiting HER2)
pIC50: −log10 of the molar value.
Experimental Endpoint: pIC50

1. C=CC(=O)Nc1cc2c(Nc3ccc(Oc4ccc(C)nc4)c(C)c3)ncnc2cc1OC1CCN(C)C1 (stereo not drawn) : 6.30 to 6.52

Next compound, please.
What measured pIC50 is associated with "C=CC(=O)Nc1cc2c(Nc3ccc(OCc4cccnn4)c(Cl)c3)ncnc2cc1OCCCN1CC(OC)C1" on HER2 YVMA (Homo sapiens, UniProt P04626, INS775YVMA)?
7.00 to 7.30

* * *

Measured Target: EGFR SVD (Homo sapiens, UniProt P00533, DUP768-770)
Construct: expressed in transfected cells; host or cells: BaF3 (murine pro-B), retroviral pMXs-IRES-Blasticidin
Method Summary: BaF3 cell proliferation assay, EGFR SVD (Table A)
Assay type: cell-based
Condition Context: potency code, 3 days, CellTiterGlo, read-out: EGFR SVD (Activity for Inhibiting EGFR)
Each entry below carries its reported IC50.

1. C=CC(=O)Nc1cc2c(Nc3ccc(OCc4ccccn4)c(Cl)c3)ncnc2cc1OCCN1CC2CC1CO2 (stereo not shown) : 30 to 50 nM
2. C=CC(=O)Nc1cc2c(Nc3ccc(OCc4ccccn4)c(Cl)c3)ncnc2cc1OCC1CCCN1 (stereo not shown) : 200 to 300 nM
3. C=CC(=O)Nc1cc2c(Nc3ccc(Oc4ccccc4)cc3)ncnc2cc1OCCN1CCOCC1 : 300 to 500 nM

Given the molecule "C=CC(=O)Nc1cc2c(Nc3cc(Cl)c(OCc4ccccn4)cc3F)ncnc2cc1OCCN1CCOCC1" , what is its reported IC50?
30 to 50 nM
